FYI, the data here is from PubChem BioAssay (NCI).

system: UO-31 renal; assay: NCI-60 one-dose screen, 48 h; settings: 10 µM
About 83,000 compounds went through this panel and 20% of them were active in at least one assay; those are over-represented in the sample as a whole. Calls of active or inactive are those of the source. Rule for the calls: active = growth percent below 10; inactive = the rest.
Hi there, use one of these labels in your reply, thanks! active, inactive

Short answer needed: outcome of this test for CN1CCN(c2ccc(Nc3nc(NCCNC(=O)c4ccc(C(F)(F)F)cc4)c4sccc4n3)cc2)CC1 ?
active

Short answer needed: outcome of this test for O=C(CSc1nnc(-c2c[nH]c3ccccc23)n1-c1ccccc1)c1ccc(Cl)cc1 ?
inactive

Short answer needed: outcome of this test for CC1(C)CC[C@]2(C(=O)N3CCOCC3)CC[C@]3(C)C(=CC[C@@H]4[C@@]5(C)CC[C@H](NCO)C(C)(C)[C@@H]5CC[C@]43C)[C@H]2C1 ?
active

Short answer needed: outcome of this test for C=C(c1ccc(OC)c(N)c1)c1cc(C)nc2ccccc12 ?
inactive

Short answer needed: outcome of this test for COC[C@@H](CC(C)C)N=C1NC(=O)/C(=C/c2ccc3ncoc3c2)N1 ?
active

Short answer needed: outcome of this test for COc1ccc(N(C)c2cc(C#N)nc3ccccc23)cc1N ?
inactive
